Overview of reported reverse-splicing fitness across a group of variants:
B1: Azoarcus group I ribozyme (parent)
chain: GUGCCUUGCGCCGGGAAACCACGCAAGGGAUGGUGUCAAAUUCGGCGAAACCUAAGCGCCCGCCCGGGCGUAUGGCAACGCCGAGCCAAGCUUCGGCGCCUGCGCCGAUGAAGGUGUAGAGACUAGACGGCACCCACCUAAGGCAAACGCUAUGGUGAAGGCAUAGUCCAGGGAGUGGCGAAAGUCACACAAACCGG

variants of: B1; assay: reverse-splicing fitness (ratio to wild type); higher = more active; in vitro selection; Mg2+ level not given
Respond with the number and no other words.

Input line: Which reverse-splicing fitness reading was recorded for the variant A111G A145U C169U U176G ?
Output line: 0.00767

Input line: Okay, and A111U A120C A145U C150A ?
Output line: 0.061

Input line: Okay, and C82G A111U C150A C169U U176G ?
Output line: 0.00776

Input line: Okay, and C82A A111U A120U A145G C150U C169G U176C ?
Output line: 0.00667

Input line: Okay, and A145U C150U C169G U176G ?
Output line: 0.008

Input line: Okay, and A111G A120U A145G C150A C169U U176A ?
Output line: 0.00579

Next:
Input line: Which reverse-splicing fitness reading was recorded for the variant C82U A145G C150G C169U U176A ?
Output line: 0.0125

Input line: Okay, and C82A A120C C150G C169G U176G ?
Output line: 0.00605
